For each of the molecules below, state its inhibition of growth at 0.05 µg/mL.
test system: Leptosphaeria nodorum (LEPTNO); assay: In vitro fungitoxicity of hydrazones with and without copper towards Leptosphaeria nodorum (Example 26); format: cell-based; conditions: Parastagonospora nodorum, 72 h, copper-minus medium; test compound Concn. 0.05 μg/mL; 72 h at 25° C.; read-out: LEPTNO % Inhn. Minus Copper Observed

Request the reported inhibition of growth at 0.05 µg/mL associated with `O=C(N/N=C/c1cc(C(F)(F)F)cc(Cl)c1O)c1ccc([N+](=O)[O-])cc1`
0%

For the molecule `O=C(N/N=C/c1ccc(Cl)c(Cl)c1O)c1ccccc1C(F)(F)F` , what inhibition of growth at 0.05 µg/mL is on record?
4.3%

inhibition of growth at 0.05 µg/mL for `C/C(=N\NC(=O)c1ccccc1Cl)c1cc(C(F)(F)F)ccc1O` ?
0%

# lookup: inhibition of growth at 0.05 µg/mL of `O=C(N/N=C/c1ccc(Cl)cc1O)c1ccc([N+](=O)[O-])cc1`
8%

# lookup: inhibition of growth at 0.05 µg/mL of `C/C(=N\NC(=O)c1c(C)cccc1O)c1cc(Cl)cc(Cl)c1O`
0%

----------
system: Phytophthora infestans; format: in vivo, Phytophthora infestans on tomato; conditions: hydrazone 50 ppm + 50 μM CuCl2.2H2O, applied 24 h before inoculation, assessed 7 days after inoculation, tomato
Lab note: cut-off is 60%. Strictly less in TLB % Control is 1 (yes). Exactly 60% or more is 0 (no).

hey, is TLB % Control for Cc1ccc(C(=O)N/N=C(\CCc2ccccc2)c2ccccc2O)c(C)c1 [Example 31] lower than 60% or not?
1 (yes)

Input `C=CCc1cccc(/C=N/NC(=O)c2ccccc2)c1O` ; condition: TLB % Control strictly below 60%. Does it hold?
0 (no)

TLB % Control strictly < 60% for this compound? `COc1cccc(C(=O)N/N=C/c2cc(Br)cc(Br)c2O)c1C`
1 (yes)

Dear reviewer, please state whether `CN(C)c1ccc(C(=O)N/N=C/c2cc(Cl)cc(Cl)c2O)cc1` has TLB % Control strictly beneath 60%.
0 (no)

In plain terms, does `O=C(N/N=C/c1cc(Cl)ccc1O)c1ccc(C(F)(F)F)cc1` come in under 60% for TLB % Control?
0 (no)

Here's an entry: `COc1cc(Br)cc(/C=N/NC(=O)c2cc(C)cc(C)c2)c1O` . Is its TLB % Control below 60%?
0 (no)

----------
test system: Leptosphaeria nodorum (LEPTNO); test: In vitro fungitoxicity of hydrazones with and without copper towards Leptosphaeria nodorum (Example 26); format: cell-based; conditions: Parastagonospora nodorum, 72 h, compound 0.05 μg/mL, copper-minus medium, 72 h at 25° C.; read-out: LEPTNO % Inhn. Minus Copper Observed
Can you tell me inhibition of growth at 0.05 µg/mL for the items I'm about to list?
Write the number in % without appending the unit.

Identify the measured inhibition of growth at 0.05 µg/mL of `COc1ccccc1C(=O)N/N=C/c1cc(Br)cc(Br)c1O` for Leptosphaeria nodorum (LEPTNO).
0

Lab note: need inhibition of growth at 0.05 µg/mL with Leptosphaeria nodorum (LEPTNO) for entry `O=C(N/N=C/c1cc(I)cc(I)c1O)c1ccccc1` , please look it up.
0

Kindly state the measured inhibition of growth at 0.05 µg/mL obtained for `O=C(N/N=C/c1cc(Cl)cc(Br)c1O)c1ccc(OC(F)(F)F)cc1` with Leptosphaeria nodorum (LEPTNO).
0

Under Leptosphaeria nodorum (LEPTNO): inhibition of growth at 0.05 µg/mL value of `O=C(N/N=C/c1cc([N+](=O)[O-])ccc1O)c1ccccc1` ?
0

// fetch Leptosphaeria nodorum (LEPTNO) inhibition of growth at 0.05 µg/mL for `Cc1ccc(O)c(C(=O)N/N=C/c2cc(Cl)cc(Cl)c2O)c1`
34.1

----------
system: Phytophthora infestans; format: in vivo, Phytophthora infestans on tomato; conditions: hydrazone 50 ppm + 50 μM CuCl2.2H2O, applied 24 h before inoculation, assessed 7 days after inoculation, tomato
Measurement label: TLB % Control (%)
Quick reminder: number only, in %, skip the unit.

Query (molecule): O=C(N/N=C/c1c(O)cc(Cl)cc1Cl)c1ccccc1 [Example 242] ; field requested: TLB % Control
78.0

Given the molecule O=C(N/N=C/c1c(F)ccc(F)c1O)c1ccccc1 [Example 244] , what is its reported TLB % Control?
62.7

Reported TLB % Control for C/C(=N\NC(=O)c1ccc(Cl)cc1)c1ccc(Cl)cc1O [Example 257] : what is it?
21.0

Entry O=C(N/N=C/c1cc(Cl)ccc1O)c1ccc(Cl)cc1 [Example 172] : reported TLB % Control = ?
27.1

// returns reported TLB % Control for input O=C(N/N=C/c1cc(Br)ccc1O)c1ccc2c(c1)OCO2 [Example 7]
54.6

Field request: TLB % Control | item: O=C(Cc1ccccc1)N/N=C/c1cc(Cl)cc(Br)c1O [Example 210]
37.0

Need TLB % Control of O=C(N/N=C/c1cc(Cl)cc(Cl)c1O)c1ccccc1O [Example 69] , thanks.
90.8

# input molecule: C/C(=N\NC(=O)c1ccc(Cl)cc1)c1ccccc1O [Example 54] ; wanted: its TLB % Control
17.0

Fill in the blank: the reported TLB % Control of C/C(=N\NC(=O)c1ccc(Cl)cc1)c1cccc([N+](=O)[O-])c1O [Example 274] is ____.
89.0

# get_value(readout='TLB % Control', item= CCOc1cccc(C(=O)N/N=C/c2cc(Cl)cc(Cl)c2O)c1 [Example 86] )
80.7

Given Cc1ccc(C(=O)N/N=C/c2cc(Cl)cc(Cl)c2O)c(C)c1 [Example 27] , state its recorded TLB % Control.
43.3

Looking for the measured TLB % Control of O=C(N/N=C/c1cc(Cl)cc(Br)c1O)c1cccc(Br)c1 [Example 163] , can you help?
87.7

If you can, please state the reported TLB % Control value of C/C(=N\NC(=O)c1ccc(Br)cc1)c1cc(Cl)cc(Cl)c1O [Example 139] .
93.0

Return reported TLB % Control; argument: C/C(=N\NC(=O)c1ccc(C)cc1)c1cccc([N+](=O)[O-])c1O [Example 271]
61.0

Entry O=C(CCc1cc(Br)c(O)c(Br)c1)N/N=C/c1cc(Cl)cc(Cl)c1O [Example 5] has what TLB % Control?
22.0

----------
Consider the following compounds; for each one, report its melting point.

Can you look up the measured melting point of `N#Cc1ccc(C(=O)N/N=C/c2cc(Cl)cc(Cl)c2O)cc1` for me?
234 to 270 °C

Reported melting point, compound `O=C(N/N=C/c1c(C(F)(F)F)ccc(Cl)c1O)c1cccc(F)c1` : ____
227 to 229 °C

Given the compound `COc1ccc(C(=O)N/N=C(\C)c2c(O)cc(OC)cc2OC)cc1` , what is its reported melting point?
143 to 146 °C

Record request: melting point value, item `O=C(N/N=C/c1cccc(Cl)c1O)c1cccc(Cl)c1`
174 to 178 °C

Quick one: melting point of `COc1ccc(/C(C)=N/NC(=O)c2ccccc2Cl)c(O)c1` ?
174 to 175 °C

Report melting point for `C/C(=N\NC(=O)c1ccc(C(F)(F)F)cc1)c1cc(Br)cc(Br)c1O` please.
255 to 257 °C

Quick one: melting point of `O=C(N/N=C/c1cc(Cl)ccc1O)c1cc(Cl)ccc1Cl` ?
185 to 188 °C

Would you mind telling me what melting point value was observed for `O=C(N/N=C/c1c(C(F)(F)F)ccc(Cl)c1O)c1ccc(Cl)cc1` ?
236 to 238 °C

Fill in the blank: the reported melting point of `O=C(N/N=C/c1cccc(Cl)c1O)c1ccccc1` is ____.
188 to 189 °C

Can you share its melting point? I mean this compound: `Cc1cccc(C(=O)N/N=C/c2cc(Cl)ccc2O)c1`
188 to 196 °C

Suppose we examine the compound `O=C(N/N=C/c1ccc(Cl)c(Cl)c1O)c1ccc([N+](=O)[O-])cc1` ; what melting point value has been reported?
237 to 243 °C

Any idea what its melting point is? The compound is `C/C(=N\NC(=O)c1cccc(Cl)c1)c1ccc(Cl)cc1O`
222 to 223 °C

What measured melting point goes with `O=C(N/N=C/c1cc(C(F)(F)F)ccc1O)c1cccc(F)c1` ?
188 to 196 °C

Query: melting point; subject: `C/C(=N\NC(=O)c1ccc(Br)cc1)c1cccc([N+](=O)[O-])c1O`
244 to 252 °C

Would you mind telling me what melting point value was observed for `O=C(N/N=C(/c1ccccc1O)C(F)(F)F)c1ccccc1` ?
208 to 210 °C

I have this compound here, `C/C(=N\NC(=O)c1ccccc1Cl)c1ccc(Cl)cc1O` , and I need its recorded melting point.
183 to 184 °C

Param item = `C/C(=N\NC(=O)c1cccc(C)c1)c1cc(Cl)ccc1O` ; retrieve measured melting point.
222 to 228 °C

Which measured melting point value corresponds to `C/C(=N\NC(=O)c1ccccc1[N+](=O)[O-])c1cc(Cl)cc(Cl)c1O` ?
250 to 253 °C

# input compound: `C/C(=N\NC(=O)c1ccc(C)cc1)c1cc(Cl)cc(Cl)c1O` ; wanted: its melting point
262 to 264 °C

Give the measured melting point of `O=C(N/N=C/c1c(C(F)(F)F)ccc(Cl)c1O)c1ccccc1` .
216 to 218 °C

Need melting point of `COc1ccccc1C(=O)N/N=C(\C)c1cc(Cl)cc(Cl)c1O` , thanks.
307 to 310 °C
